Data origin: patent US20210301021A1

- TESTED_TARGET: T1, CTLA4/His (human, UniProt P16410 36-161)
- T1 construct: not shown: His tag
- T1 sequence (looked up): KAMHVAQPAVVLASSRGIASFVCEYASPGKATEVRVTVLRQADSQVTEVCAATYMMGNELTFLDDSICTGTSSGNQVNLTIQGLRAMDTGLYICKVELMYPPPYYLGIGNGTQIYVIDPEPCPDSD
- ASSAY_TEXT: SPR, Biacore 8K, antibody captured on the chip, antigen as analyte, 1:1 binding model
PROPERTY_NAME: kon (M⁻¹ s⁻¹)
Numbers only, in M⁻¹ s⁻¹.

Look at each binder and report its kon.
1. AH01696 humanized anti-human CTLA4 monoclonal antibody (human IgG1/kappa) (antibody, V domains shown) VH: VQLVQSGAEVVKPGASVKVSCKASGYTFTSYWINWIRQAPGQGLEWIGRIAPGSGTTYYNEMFTGRVTLTRDTSTSTAYMELSSLRSEDTAVYYCARGDYFDYWDQGTMVTVSS VL: DIQLTQSPSFLSASVGDRVTITCSASKSVSYIHWFQQKPGKAPKLLIYDTSTLASGVPSRFSGSGSGTEYTLTISSLQPEDFATYYCQQRTTYPLTFGQGTKLEIK
2. AH01674 humanized anti-human CTLA4 monoclonal antibody (human IgG1/kappa) (antibody, V domains shown, also called AH1674) VH: QVQLVQSGAEVKKPGASVKVSCKASGYTFTSYWINWVRQAPGQGLEWMGRIAPGSGTTYYNEMFTGRVTMTRDTSTSTAYMELSSLRSEDTAVYYCARGDYFDYWGQGTMVTVSS VL: DIQLTQSPSFLSASVGDRVTITCSASKSVSYIHWYQQKPGKAPKLLIYDTSTLASGVPPRFSGSGSGPEFTLTISSLQPEDFATYYCQQRTTYPLTFGQGTKLEIK
3. AH01704 humanized anti-human CTLA4 monoclonal antibody (human IgG1/kappa) (antibody, V domains shown) VH: QVQLVQSGAEVVKPGASVKVSCKASGYTFTSYWINWVKQAPGQGLEWMGRIAPGSGTTYYNEMFTGRVTLTRDTSTSTAYMELSSLRSEDTAVYFCARGDYFDYWGQGTMVTVSS VL: DIQLTQSPSFLSASVGDRVTITCSASKSVSYIHWYQQKPGKAPKLLIYDTSTLASGVPSRFSGSGSGTEYTLTISSLQPEDFATYYCQQRTTYPLTFGQGTKLEIK
4. AH01686 humanized anti-human CTLA4 monoclonal antibody (human IgG1/kappa) (antibody, V domains shown) VH: QVQLVQSGAEVVKPGASVKVSCKASGYTFTSYWINWIKQAPGQGLEWIGRIAPGSGTTYYNEMFTGRVTLTRDTSTSTAYIELSSLRSEDTAVYFCARGDYFDYWGQGTMVTVSS VL: DIQLTQSPSFLSASVGDRVTITCSASKSVSYIHWYQQKPGKAPKLLIYDTSTLASGVPSRFSGSGSGTEFTLTISSLQPEDFATYYCQQRTTYPLTFGQGTKLEIK

646000
705000
780000
820000

Go through the items and report each one's kon.
1. Chimeric antibody (antibody, V domains shown, also called Chimeric IgG) VH: QVHLQQSGDVLVKPGASVNLSCKASGYTFTSYWINWIKQRPGQGLEWIGRIAPGSGTTYYNEMFTGKATLTVVTSSTTAYIQLSSLSFEDSAVYFCARGDYFDYWDQGTTLTVSS VL: QIVLTQSPAIMSASPGGKVTITCSASKSVSYIHWFQQKPGTSPKLLIYDTSTLASGVPPRFSGSGSGPSYSLTISRMEAEDAATYYCQQRTTYPLTFGGGTKLEVR
2. AH01695 humanized anti-human CTLA4 monoclonal antibody (human IgG1/kappa) (antibody, V domains shown, also called AH1695) VH: QVQLVQSGAEVKKPGASVKVSCKASGYTFTSYWINWVRQAPGQGLEWMGRIAPGSGTTYYNEMFTGRVTLTRDTSTSTAYIELSSLRSEDTAVYFCAIGDYFDYWGQGTMVTVSS VL: DIQLTQSPSFLSASVGDRVTITCSASKSVSYIHWYQQKPGKAPKLLIYDTSTLASGVPSRFSGSGSGTEFTLTISSLQPEDFATYYCQQRTTYPLTFGQGTKLEIK
3. AH01679 humanized anti-human CTLA4 monoclonal antibody (human IgG1/kappa) (antibody, V domains shown, also called AH1679) VH: QVQLVQSGAEVVKPGASVKLSCKASGYTFTSYWINWVRQAPGQGLEWIGRIAPGSGTTYYNEMFTGRVTMTRDTSTSTVYMELSSLRSEDTAVYYCARGDYFDYWGQGTMVTVSS VL: DIQLTQSPSFLSASVGDRVTITCSASKSVSYIHWYQQKPGKAPKLLIYDTSTLASGVPSRFSGSGSGTEFTLTISSLQPEDFATYYCQQRTTYPLTFGQGTKLEIK

434000
655000
748000
